- System: MDA-N
- assay-notes: NCI tumour cell line growth inhibition, 48 h
Activity calls are given as the source filed them. No stated cut-off is given here; in the data, active = GI50 up to about 1.1 µM and inactive = higher.
Listing of entries alongside the reported GI50.

# compound, test-system, GI50
data = [
    ("N#CC(C/C=C/c1ccccc1)NNC(=O)c1c(Cl)c(Cl)c(Cl)c(Cl)c1-c1nc2cc(C(=O)c3ccccc3)ccc2[nH]1 (stereo not drawn)", "MDA-N", "3.24 µM (inactive)"),
    ("Cn1cc2c(=O)n3ncn(-c4ccc(Br)cc4)c3nc2n1", "MDA-N", "> 100 µM (inactive)"),
    ("C=CCc1cc(C=C(C#N)C#N)cc(OC)c1O", "MDA-N", "> 100 µM (inactive)"),
    ("C[C@H]1S[C@@H](c2ccc(Cl)cc2Cl)N(NC(=O)c2ccncc2)C1=O", "MDA-N", "> 10 µM (inactive)"),
    ("CCCCCCCC(=O)NC(C)(C)C(=O)NCC(=O)NC(CC(C)C)C(=O)NC(C)(C)C(=O)NCC(=O)NCC(=O)NC(CC(C)C)C(=O)NC(C)(C)C(=O)NCC(=O)NC(C(=O)NC(CO)CC(C)C)C(C)CC (stereo not drawn)", "MDA-N", "4 µM (inactive)"),
    ("CC(=O)NNc1nc(C)c(C(/C=C/c2ccccc2O)=N/N=C(N)N)s1", "MDA-N", "> 100 µM (inactive)"),
    ("CC1C(=O)N=C2C(=CN(Cc3ccccc3)c3ccccc32)C(=O)N1C (stereo not drawn)", "MDA-N", "> 100 µM (inactive)"),
    ("NC(=O)NC(=O)c1cccc(C(=O)NC(N)=O)n1", "MDA-N", "> 100 µM (inactive)"),
    ("COc1cc2cc(C(=O)N3CC(CCl)c4ccc(NO)cc43)[nH]c2c(OC)c1OC (stereo not drawn)", "MDA-N", "0.249 µM (active)"),
    ("CN(C)C(=O)N1N[C@H](c2ccccc2)[C@@H]1c1ccccc1", "MDA-N", "> 100 µM (inactive)"),
    ("O=C1c2cc([N+](=O)[O-])sc2C(=O)c2c([N+](=O)[O-])csc21", "MDA-N", "0.189 µM (active)"),
    ("C=CC(C)(C)C1(CC(OC)OC)C(=O)N(C)c2ccccc21 (stereo not drawn)", "MDA-N", "> 25 µM (inactive)"),
    ("CCON=C1C(C)(C)C(C)(C)C(C)(C)C1(C)C", "MDA-N", "> 100 µM (inactive)"),
]
